REPORTED_ENDPOINT: melting point

Answered cases to consult:
>  <COMPOUND>
CCn1c2cc(C)ccc2c2ccc3ccccc3c21

>  <OBSERVED_VALUE>
104 to 105 °C

$$$$
>  <COMPOUND>
OC1CSC(Oc2cccc3conc23)C(O)C1O (stereo not given)

>  <OBSERVED_VALUE>
115 °C

$$$$
>  <COMPOUND>
Cc1cc(Oc2ncc(C(F)(F)F)cc2Cl)ccc1N=C=O

>  <OBSERVED_VALUE>
154 to 161 °C

$$$$
>  <COMPOUND>
CCOc1ccc(OC(CCC(=O)O)C2(O)CN3CCC2CC3)cc1 (stereo not given)

>  <OBSERVED_VALUE>
75 to 77 °C

$$$$
>  <COMPOUND>
Cc1ccc(F)cc1-n1c(CF)nc2ccc(N)cc2c1=O

>  <OBSERVED_VALUE>
174 to 176 °C

$$$$
>  <COMPOUND>
COc1cc(OC)c(-c2cc3ccccc3s2)cc1C=CC(=O)c1cc(OC)c(O)c(OC)c1

>  <OBSERVED_VALUE>
85 to 105 °C

$$$$

// for each compound below, give its melting point
1. N#CC1=C(C2CC2)Nc2n[nH]cc2C1c1cccc(N2CCOCC2)c1 (stereo not given)
2. CN(C)C1CCN(c2ccc(-c3[nH]nc4c3C(=O)c3c(NC(=O)NN5CCOCC5)cccc3-4)cc2)CC1
3. CC(=O)c1cc(S(=O)(=O)c2ccccc2)ccc1OCc1ccccc1
4. CC1(C)NC(=O)N(c2ccc(Cl)c(C(F)(F)F)c2)C1=N
5. CS(=O)(=O)Oc1ccc(N2CC(COc3ccc(C(=O)O)cc3)CC2=O)cc1 (stereo not given)
6. Nc1nc2ccccc2c2c1ncn2CCOCC#Cc1cccs1

Result ::
> 260 °C
258 °C
80.5 to 82.4 °C
148 to 149 °C
199 to 201 °C
148 to 150 °C

// for each compound below, give its melting point
1. CC1(C)CC(=O)c2ccc(C#Cc3cccnc3)nc2C1
2. CCc1nn(-c2ccccc2)nc1/C(C#N)=C(\OC(=O)C(C)(C)C)c1c(C)c(C)nn1C
3. C#CCOCc1c(C)nc2c(OCc3ccccc3C)cccn12
4. CN1CCN(c2ccc(Nc3ncc4c(n3)S/C(=C/c3ccc([N+](=O)[O-])cc3)C(=O)N4)cc2)CC1
5. CC(C)(C)[Si](OCCCc1ccc(OCC(=O)O)cc1)(c1ccccc1)c1ccccc1
6. CC(=O)c1ccc(OCCCCl)c(C)c1

Result ::
108 to 109 °C
119 °C
87 to 89 °C
276 to 279 °C
87 to 88 °C
41.5 to 42.5 °C

----------
REPORTED_ENDPOINT: melting point

Answered cases to consult:
>  <COMPOUND>
O=C(O)CN1C(=O)C(=Cc2cccc(Cl)c2)SC1=S

>  <melting point>
227 to 229 °C

$$$$
>  <COMPOUND>
CC(C)(C)C(=O)COC(=O)C1(C(=O)OCc2ccccc2)CCCN(C(=O)OCC(Cl)(Cl)Cl)C1 (centres undefined)

>  <melting point>
114 °C

$$$$
>  <COMPOUND>
OC(CN1CCN(C(c2ccccc2)c2ccccc2)CC1)c1ccc(OCc2ccccc2)cc1 (centres undefined)

>  <melting point>
129 °C

$$$$
>  <COMPOUND>
C[C@@]1(CN2CCN(C(=O)OCc3ccc(F)cc3)CC2)Cn2cc([N+](=O)[O-])nc2O1

>  <melting point>
167 to 169 °C

$$$$
>  <COMPOUND>
NC(=O)c1[nH]c2ccccc2c1-c1ccc(NC(=O)Nc2cccc(C(F)(F)F)c2)cc1

>  <melting point>
156 to 158 °C

$$$$
>  <COMPOUND>
C#CCn1c(-c2c(Cl)cccc2Cl)nc(-c2ccncc2)c1-c1ccc(Cl)cc1

>  <melting point>
169 to 172 °C

$$$$

// for each compound below, give its melting point
1. CCOC(=O)c1cccc(Oc2ncccc2O)c1
2. CCCCCCCCCCCCCCCCC(=O)Nc1ccn(C2OC(CO)C(O)C2O)c(=O)n1 (centres undefined)
3. O=C1c2cc(F)ccc2OCC1C(=O)C(F)(F)F (centres undefined)

Result ::
117 to 118 °C
144 to 147 °C
107 to 112 °C

----------
REPORTED_ENDPOINT: melting point

// for each compound below, give its melting point
1. Cc1ccn2c(=Nc3ccncc3)snc2c1
2. CC(C)C(C(=O)O)N(Cl)Cl (stereo not drawn)
3. CCOC(=O)C1=C(COCCNCC(N)=O)NC(C)=C(C(=O)OC)C1c1ccccc1Cl (stereo not drawn)

Result ::
144 to 145 °C
44 to 46 °C
126 to 129 °C

----------
REPORTED_ENDPOINT: melting point

>  <MOLECULE>
COC(=O)c1ccc(Cl)cc1NC(=O)CSc1ccc(NC(=O)Cc2ccccc2)cc1

>  <OBSERVED_VALUE>
144 to 146 °C

$$$$
>  <MOLECULE>
C#CC[C@@H](N)c1nc2cc(Cl)ccc2c(=O)n1Nc1ccccc1

>  <OBSERVED_VALUE>
175 to 180 °C

$$$$
>  <MOLECULE>
N#Cc1c(N2CCc3ccccc3CC2)nc(C2CC2)[nH]c1=O

>  <OBSERVED_VALUE>
> 200 °C

$$$$

Read the next record carefully.
Query :: Which measured melting point value corresponds to CC(C)(C)OC(=O)NCCCC(c1cc(F)ccc1F)S(=O)(=O)c1ccc(Cl)cc1 (centres undefined) ?
Result :: 119 to 120 °C

----------
Provide the recorded melting point for the entries that follow.

>  <MOL_SMILES>
O=C(O)c1cc(O)c(-c2ccccc2)c([N+](=O)[O-])c1

>  <melting point>
213 to 215 °C

$$$$
>  <MOL_SMILES>
CCCc1c(O)ccc2c(OCc3ccccc3)cc(=O)oc12

>  <melting point>
213 to 214 °C

$$$$
>  <MOL_SMILES>
O=S(=O)(Nc1cccc2cc(-c3ncns3)[nH]c12)c1cccs1

>  <melting point>
232 to 233 °C

$$$$
>  <MOL_SMILES>
CCOCc1nc2c(N)nc3ccccc3c2n1C[C@@H](O)CO

>  <melting point>
99 to 100 °C

$$$$

Read the next record carefully.
Query :: Which measured melting point value corresponds to `CC(C)n1nc(-c2sc(NC(=O)N(C)C)nc2-c2ccccc2)ccc1=O` ?
Result :: 199 to 200 °C

----------
Provide the recorded melting point for the entries that follow.

Answered cases to consult:
>  <MOL_SMILES>
O=C(C1CCC1)N1CCC2(CC1)Cc1ccccc1O2

>  <melting point>
91 to 93 °C

$$$$
>  <MOL_SMILES>
CCn1cc(C(=O)Nc2ccc(C(C)C)cc2)cn1

>  <melting point>
141 °C

$$$$
>  <MOL_SMILES>
C=CC(=O)Nc1ccc2c(c1)nnn2C(C)=O

>  <melting point>
167 to 170 °C

$$$$
>  <MOL_SMILES>
Fc1ccc2c(CN3CCN(CCc4ccccc4)CC3)n[nH]c2c1

>  <melting point>
148 to 149 °C

$$$$
>  <MOL_SMILES>
N#Cc1cc(N)ccc1N1CCN(C2CCOCC2)CC1

>  <melting point>
162 °C

$$$$

// for each compound below, give its melting point
1. CS(=O)(=O)Nn1c(=O)[nH]c2cc(C(F)(F)F)c(-c3ccc(C#N)cc3)cc2c1=O
2. CC(C)(CN1CCN(C(=O)c2ccc(OC(=O)Cc3ccccc3Nc3c(Cl)cccc3Cl)cc2)CC1)SN=O

Result ::
1. 145 to 147 °C
2. 61 to 62 °C
